- PROTOCOL_DETAILS: Pharmacokinetic studies in human, Compound I in plasma by LC/MS/MS
- Type: in vivo
- CONDITION_DETAILS: human, plasma, intravenous, Groups 8-10, Day 1, range of group means; read-out: Total exposures (AUC∞)
PROPERTY_MEASURED: AUC(0-inf)

[Q] I have this molecule here, Cc1cnc(CNC(=O)c2c(=O)c3ccc(N4CCCN(C)CC4)nc3n3c2sc2ccccc23)cn1 [Compound I] , and I need its recorded AUC(0-inf).
[A] 29100 to 57500 ng·h/mL

---

- PROTOCOL_DETAILS: Pharmacokinetic studies in human, Compound I in plasma by LC/MS/MS
- Format: in vivo
- CONDITION_DETAILS: human, plasma, intravenous, Groups 1-7, Day 8, range of group means
PROPERTY_MEASURED: Cmax

[Q] I have this compound here, Cc1cnc(CNC(=O)c2c(=O)c3ccc(N4CCCN(C)CC4)nc3n3c2sc2ccccc23)cn1 , and I need its recorded Cmax.
[A] 642 to 1710 ng/mL

---

- PROTOCOL_DETAILS: Pharmacokinetic studies in human, Compound I in plasma by LC/MS/MS
- Type: in vivo
- CONDITION_DETAILS: human, plasma, iv, 325 mg/m2, Group 6, 325 mg/m^2 IV, Day 1, mean, n = 3; read-out: AUC∞
PROPERTY_MEASURED: AUC(0-inf) (ng·h/mL)
// return numeric value only (unit: ng·h/mL, not printed)

[Q] I have this compound here, Cc1cnc(CNC(=O)c2c(=O)c3ccc(N4CCCN(C)CC4)nc3n3c2sc2ccccc23)cn1 , and I need its recorded AUC(0-inf).
[A] 23500

---

- PROTOCOL_DETAILS: Pharmacokinetic studies in human, Compound I in plasma by LC/MS/MS
- Type: in vivo
- CONDITION_DETAILS: human, plasma, iv, 150 mg/m2, Group 3, 150 mg/m^2 IV, Day 8, mean, n = 4
PROPERTY_MEASURED: clearance (mL/min)
// return numeric value only (unit: mL/min, not printed)

[Q] I have this compound here, Cc1cnc(CNC(=O)c2c(=O)c3ccc(N4CCCN(C)CC4)nc3n3c2sc2ccccc23)cn1 , and I need its recorded clearance.
[A] 203

---

- System: MDA-MB-361
- PROTOCOL_DETAILS: Alamar Blue cell viability assay, MDA-MB-361
- Type: cell-based
- CONDITION_DETAILS: Homo sapiens; MDA-MB-361, Breast
PROPERTY_MEASURED: pEC50
Lab note — pEC50 values are minus log10 of concentrations in M.

[Q] I have this compound here, Cc1cnc(CNC(=O)c2c(=O)c3ccc(N4CCCN(C)CC4)nc3n3c2sc2ccccc23)cn1 , and I need its recorded pEC50.
[A] 5.68

---

- PROTOCOL_DETAILS: Pharmacokinetic studies in human, Compound I in plasma by LC/MS/MS
- Type: in vivo
- CONDITION_DETAILS: human, plasma, iv, 325 mg/m2, Group 8, 325 mg/m^2 IV, Day 1, mean, n = 3
PROPERTY_MEASURED: Vd (L)
// return numeric value only (unit: L, not printed)

[Q] I have this compound here, Cc1cnc(CNC(=O)c2c(=O)c3ccc(N4CCCN(C)CC4)nc3n3c2sc2ccccc23)cn1 , and I need its recorded Vd.
[A] 2320
